- subject of test: Vasopressin V2 receptor (Sus scrofa)
- protocol notes: Compound was tested for binding affinity against V2 vasopressin receptor in pig renal medullary membrane preparations using tritiated LVP.
- Type: cell membranes
- condition details: Renal medulla
Listing of entries alongside the reported K bind.
Hi! Could you send only the number? It should be in nM, unit omitted.

The following compounds have reported results that may help.
>>> assay_value("CCOc1ccc(C[C@H]2NC(=O)CC3(CCCCC3)SSC[C@H](C(=O)N3CCC[C@H]3C(=O)N[C@H](CCCN=C(N)N)C(=O)NCC(N)=O)NC(=O)[C@@H](CC(N)=O)NC(=O)[C@H](C(C)C)NC(=O)[C@@H](Cc3ccccc3)NC2=O)cc1")
12
>>> assay_value("CCOc1ccc(C[C@@H]2NC(=O)CC3(CCCCC3)SSC[C@H](C(=O)N3CCC[C@H]3C(=O)N[C@H](CCCN=C(N)N)C(N)=O)NC(=O)[C@@H](CC(N)=O)NC(=O)[C@H](C(C)C)NC(=O)[C@@H](Cc3ccccc3)NC2=O)cc1")
280

-- ask Lab request: please report K bind under test system Vasopressin V2 receptor (Sus scrofa) for `CCOc1ccc(C[C@@H]2NC(=O)CC(CC)(CC)SSC[C@H](C(=O)N3CCC[C@H]3C(=O)N[C@H](CCCN=C(N)N)C(N)=O)NC(=O)[C@@H](CC(N)=O)NC(=O)[C@H](C(C)C)NC(=O)[C@@H](Cc3ccccc3)NC2=O)cc1`
-- reply 450

Just for reference, ChEMBL document CHEMBL1123377 is where these values come from.
